System: Klebsiella pneumoniae
Test: Antibacterial activity against Klebsiella pneumoniae ATCC 700603 incubated for 18 to 24 hrs by broth microdilution method
Format: functional
Details: time 18-24 hrs
Bridge positions count the residues as written; N and C are the ends. Square brackets hold non-standard residues; d marks the D form. Peptide text beside a SMILES is read from it. * marks the point of attachment. dOrn = NCCC[C@@H](N)C(=O)O; Octanoyl = CCCCCCCC(=O)*; Orn = NCCC[C@H](N)C(=O)O
Property measured: MIC

Worked examples follow.
- CCC(C)CCC(=O)N[C@H](CC(N)=O)C(=O)N[C@H](Cc1ccc(O)cc1)C(=O)N[C@H](Cc1c[nH]c2ccccc12)C(=O)N[C@H](CCCCN)C(=O)N[C@@H](CCCCN)C(=O)NCC(=O)N[C@H](CCCCN)C(=O)N[C@@H](Cc1c[nH]c2ccccc12)C(=O)N[C@@H]1C(=O)N[C@@H]([C@@H](C)CC)C(=O)NCC(=O)N[C@@H](CO)C(=O)O[C@@H]1C (stereo partly drawn): 8 µM
- CCC(C)CCC(=O)N[C@H](CC(N)=O)C(=O)N[C@H](Cc1ccc(O)cc1)C(=O)N[C@H](Cc1c[nH]c2ccccc12)C(=O)N[C@H](CCCN)C(=O)N[C@@H](C)C(=O)NCC(=O)N[C@H](CCCN)C(=O)N[C@@H](Cc1c[nH]c2ccccc12)C(=O)N[C@@H]1C(=O)N[C@@H]([C@@H](C)CC)C(=O)NCC(=O)N[C@@H](CO)C(=O)O[C@@H]1C (mixture of isomers): 8 µM

Now consider a different compound.
Report MIC for CCCCCCCC(=O)N[C@H](CC(N)=O)C(=O)N[C@H](Cc1ccc(O)cc1)C(=O)N[C@H](Cc1c[nH]c2ccccc12)C(=O)N[C@H](CCCN)C(=O)N[C@@H](CCCN)C(=O)NCC(=O)N[C@H](CCCN)C(=O)N[C@@H](Cc1c[nH]c2ccccc12)C(=O)N[C@@H]1C(=O)N[C@@H]([C@@H](C)CC)C(=O)NCC(=O)N[C@@H](CO)C(=O)O[C@@H]1C (Octanoyl-[dN][dY][dW][dOrn][Orn]G[dOrn]WTIGS; ester 9-C) please.
4 µM

----------
Assay: Toxicity in male BALB/c mouse assessed as lethal dose administered as ip measured after 7 days
Format: organism-based
Conditions: male, BALB/c, in vivo, time 7 day
Property measured: LD50 at 168 h (mg/kg)
// return numeric value only (unit: mg/kg, not printed)

Report LD50 at 168 h for CCCCCCCCCC(=O)N[C@H](CCCN)C(=O)N[C@H](Cc1ccc(O)cc1)C(=O)N[C@H](Cc1c[nH]c2ccccc12)C(=O)N[C@H](CCCN)C(=O)N[C@@H](CCCN)C(=O)NCC(=O)N[C@H](CCCN)C(=O)N[C@@H](Cc1c[nH]c2ccccc12)C(=O)N[C@H](C(=O)N[C@H](C(=O)NCC(=O)N[C@@H](CO)C(=O)O)[C@@H](C)CC)[C@@H](C)O please.
46.9

----------
System: Erythrocyte
Assay: Hemolytic activity in mouse red blood cell assessed as hemolysis incubated for 1 hr
Type: toxicity, cell-based
Property measured: MHC (µM)
// return numeric value only (unit: µM, not printed)

• CCC(C)CCC(=O)N[C@H](CC(N)=O)C(=O)N[C@H](Cc1ccc(O)cc1)C(=O)N[C@H](Cc1c[nH]c2ccccc12)C(=O)N[C@H](CCCN)C(=O)N[C@@H](CCCN)C(=O)NCC(=O)N[C@H](C)C(=O)N[C@@H](Cc1c[nH]c2ccccc12)C(=O)N[C@@H]1C(=O)N[C@@H]([C@@H](C)CC)C(=O)NCC(=O)N[C@@H](CO)C(=O)O[C@@H]1C (mixture of isomers) = 32

Now consider a different compound.
Report MHC for CCCCCCCCCC(=O)N[C@H](CCCN)C(=O)N[C@H](Cc1ccc(O)cc1)C(=O)N[C@H](Cc1c[nH]c2ccccc12)C(=O)N[C@H](CCCN)C(=O)N[C@@H](CCCN)C(=O)NCC(=O)N[C@H](CCCN)C(=O)N[C@@H](Cc1c[nH]c2ccccc12)C(=O)N[C@H](C(=O)N[C@H](C(=O)NCC(=O)N[C@@H](CO)C(=O)O)[C@@H](C)CC)[C@@H](C)O please.
128

Origin of measurements: ChEMBL document CHEMBL5512645
